Biological target: T1, mouse IL-12Rβ2 expressed on cells (mouse, UniProt P97378 24-874)
T1 construct: HEK293T cells, stably transduced (cDNA NM_008354); also called mIL-12RB2
T1 sequence: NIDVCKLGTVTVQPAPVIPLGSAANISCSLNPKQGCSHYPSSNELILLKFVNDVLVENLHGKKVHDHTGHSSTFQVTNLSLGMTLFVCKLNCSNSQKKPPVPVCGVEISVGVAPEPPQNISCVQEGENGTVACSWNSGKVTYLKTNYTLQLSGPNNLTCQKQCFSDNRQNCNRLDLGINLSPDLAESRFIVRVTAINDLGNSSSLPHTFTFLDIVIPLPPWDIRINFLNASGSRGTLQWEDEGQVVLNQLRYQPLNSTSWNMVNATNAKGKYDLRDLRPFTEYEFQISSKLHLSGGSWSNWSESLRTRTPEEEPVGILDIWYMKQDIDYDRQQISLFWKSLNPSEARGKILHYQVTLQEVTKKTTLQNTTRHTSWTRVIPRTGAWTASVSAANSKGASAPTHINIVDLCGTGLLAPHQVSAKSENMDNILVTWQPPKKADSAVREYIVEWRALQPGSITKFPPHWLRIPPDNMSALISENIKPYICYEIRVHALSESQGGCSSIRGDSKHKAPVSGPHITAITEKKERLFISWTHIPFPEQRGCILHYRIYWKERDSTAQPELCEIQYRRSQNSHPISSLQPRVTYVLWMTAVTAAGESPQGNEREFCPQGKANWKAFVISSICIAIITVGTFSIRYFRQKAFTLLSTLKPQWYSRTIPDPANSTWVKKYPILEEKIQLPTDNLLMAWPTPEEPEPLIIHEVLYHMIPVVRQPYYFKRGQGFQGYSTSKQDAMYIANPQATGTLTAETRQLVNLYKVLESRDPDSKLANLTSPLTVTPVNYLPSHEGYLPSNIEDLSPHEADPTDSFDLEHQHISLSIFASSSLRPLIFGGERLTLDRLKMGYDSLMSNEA
Test: flow cytometry, P.E. VHH on HEK293T cells stably expressing mIL-12RB2
# Lookup of reported dMFI keyed by entry

Binder	Reported Metric	Val
anti-IL-12Rβ2 VHH clone 2CAM71 (VHH, not shown: small tags and cut ends, tested as periplasmic extract) VHH: QVQLQESGGGLVQAGGSLRLSCAASGRTLSNSVMGWFRQAPGKEREFVAALMWSAGSEFYTDSVKGRFSISGDGAKNTVYLQMNSLKAEDTAVYYCAAKNPPHRWSDIGKSPHYEYWGQGTQVTVSS	dMFI	322
anti-IL-12Rβ2 VHH clone 3CAM1 (VHH, not shown: small tags and cut ends, tested as periplasmic extract) VHH: QVQLQESGGGLVQAGGSLRLSCAASGRTFGSHRMGWFRQAPGQEREFVAAIAWRGGTQYYTDSVKGRFTISRDNANNTVYLQMNSLKPEDAAVYYCVAGEGSSWGDITDPRRYVFWGQGTQVTVSS	dMFI	376
anti-IL-12Rβ2 VHH clone 2CAM67 (VHH, not shown: small tags and cut ends, tested as periplasmic extract; also called 20494) VHH: QVQLQESGGGEVQAGGSLRLSCVASGRTFSVYTTGWFRQAPGKEREFVAGMSGTRTYYADSVKGRFTISRDNAKNTVYLQMNSLKPDDTAVYYCAERRYGGPSLVWDEYDYRGQGTQVTVSS	dMFI	90
anti-IL-12Rβ2 VHH clone 2CAMS29 (VHH, not shown: small tags and cut ends, tested as periplasmic extract; also called 20534) VHH: QVQLQESGGGLVQAGGSLRLSCAASGLTSSTYVIGWFRQAPGKEREFVAAIMLSGGTTIYADSLKGRCTIYKDNAKNTVYLQMNSLKLEDTAVYYCASGLIYRYSDFPRSQKYNFWGQGTQVTVSS	dMFI	99
anti-IL-12Rβ2 VHH clone 3CAM11 (VHH, not shown: small tags and cut ends, tested as periplasmic extract; also called 20508) VHH: QVQLQESGGGLVQAGGSLRLSCAASGRNLSTYAMGWIRQAPGKEREFVAAISWAGSTTYYADSVKGRFIISRDNAKNTLNLQMNSLKPEDTAVYYCAAPPYVTTTYYATPPSDIRDYHYWGQGTQVTVSS	dMFI	181

Looking for the measured dMFI of anti-IL-12Rβ2 VHH clone 2CAM18 (VHH, tested as periplasmic extract; also called 20475) VHH: QVQLQESGGGLVQVGDSLKLSCVASGTTFSTHVMAWYRQAPGKQREWVASIDSAGTTNYKDAVKGRFTISRDNVKRTVYLQMNNLKPEDSAVYLCSIPSRNAWGQGTQVTVSS , can you help? 13.6

Looking for the measured dMFI of anti-IL-12Rβ2 VHH clone 2CAM45 (VHH, not shown: small tags and cut ends, tested as periplasmic extract; also called 20485) VHH: QVQLQESGGGLVQAGGSLRLSCAASGFTFDDYAIGWFRQAPGKEREGISCISSSDYGTYYAGSVKGRFTISSDNAKNTVYLQMNSLKPEDTAVYYCAAEAISEYDCLGINYGMDYWGKGTQVTVSS , can you help? 51

Looking for the measured dMFI of anti-IL-12Rβ2 VHH clone 3CRHM99 (VHH, not shown: small tags and cut ends, tested as periplasmic extract; also called 21062) VHH: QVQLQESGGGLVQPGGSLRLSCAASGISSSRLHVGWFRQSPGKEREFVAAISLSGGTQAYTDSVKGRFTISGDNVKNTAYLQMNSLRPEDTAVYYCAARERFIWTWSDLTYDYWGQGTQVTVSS , can you help? 309
